- system.name: T1, human DLL4 extracellular domain (human, UniProt Q9NR61 27-529)
- T1 construct: purified recombinant ECD; biotin-labelled or 6xHis-tagged depending on the assay; also called huDLL4 ECD; hu DLL4 ECD
- assay.name: SPR (Biacore)
// values below are reported kon

binder: h1A11.A7 (antibody, V domains shown, also called h1A11VH.1 / h1A11.A7 VL) VH: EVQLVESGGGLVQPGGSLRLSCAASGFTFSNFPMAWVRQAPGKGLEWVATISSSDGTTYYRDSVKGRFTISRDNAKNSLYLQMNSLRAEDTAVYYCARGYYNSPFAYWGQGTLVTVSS VL: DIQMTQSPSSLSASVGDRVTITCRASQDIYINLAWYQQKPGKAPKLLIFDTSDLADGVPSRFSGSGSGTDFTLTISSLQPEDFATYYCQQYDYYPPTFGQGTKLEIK
kon (M⁻¹ s⁻¹): 170000
--
binder: h1A11.E12 (antibody, V domains shown, also called h1A11.E12 VH / h1A11.E12 VL) VH: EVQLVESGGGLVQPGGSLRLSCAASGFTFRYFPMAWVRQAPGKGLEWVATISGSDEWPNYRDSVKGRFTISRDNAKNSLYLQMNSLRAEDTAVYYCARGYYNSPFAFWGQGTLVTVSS VL: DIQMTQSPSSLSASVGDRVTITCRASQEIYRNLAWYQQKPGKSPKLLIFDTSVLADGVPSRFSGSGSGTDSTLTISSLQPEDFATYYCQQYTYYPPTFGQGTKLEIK
kon (M⁻¹ s⁻¹): 149000
--
binder: h1A11.F5 (antibody, V domains shown, also called h1A11.F5 VH / h1A11.E12 VL) VH: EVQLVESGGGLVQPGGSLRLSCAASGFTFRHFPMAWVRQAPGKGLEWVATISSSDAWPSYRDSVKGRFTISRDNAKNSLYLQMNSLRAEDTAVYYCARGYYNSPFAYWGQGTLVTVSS VL: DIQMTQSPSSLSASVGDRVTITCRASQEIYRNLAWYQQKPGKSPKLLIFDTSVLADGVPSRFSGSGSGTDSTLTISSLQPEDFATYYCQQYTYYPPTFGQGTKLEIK
kon (M⁻¹ s⁻¹): 131000
--
binder: h1A11.G3 (antibody, V domains shown, also called h1A11.G3 VH / h1A11.E12 VL) VH: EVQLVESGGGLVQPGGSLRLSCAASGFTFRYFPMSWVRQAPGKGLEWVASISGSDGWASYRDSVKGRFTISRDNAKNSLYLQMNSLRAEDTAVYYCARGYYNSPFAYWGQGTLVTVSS VL: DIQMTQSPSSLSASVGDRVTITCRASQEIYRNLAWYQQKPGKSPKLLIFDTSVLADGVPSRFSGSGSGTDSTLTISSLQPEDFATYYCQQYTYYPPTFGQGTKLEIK
kon (M⁻¹ s⁻¹): 109000
--
binder: h1A11.1 (antibody, V domains shown, humanized IgG; also called hu1A11.1; VH.1/VL.1 1A11) VH: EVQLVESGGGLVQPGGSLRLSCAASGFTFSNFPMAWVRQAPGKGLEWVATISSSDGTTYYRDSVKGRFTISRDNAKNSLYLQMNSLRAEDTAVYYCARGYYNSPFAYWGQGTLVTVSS VL: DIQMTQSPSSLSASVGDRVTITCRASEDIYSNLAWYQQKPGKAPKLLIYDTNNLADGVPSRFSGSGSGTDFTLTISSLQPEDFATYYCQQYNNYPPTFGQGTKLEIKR
kon (M⁻¹ s⁻¹): 158000
--
binder: h1A11.A6 (antibody, V domains shown, also called h1A11.A6 VH / h1A11VL.1) VH: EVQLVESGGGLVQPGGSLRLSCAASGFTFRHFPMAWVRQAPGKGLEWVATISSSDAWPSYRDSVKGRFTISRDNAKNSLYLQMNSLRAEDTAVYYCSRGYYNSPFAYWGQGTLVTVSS VL: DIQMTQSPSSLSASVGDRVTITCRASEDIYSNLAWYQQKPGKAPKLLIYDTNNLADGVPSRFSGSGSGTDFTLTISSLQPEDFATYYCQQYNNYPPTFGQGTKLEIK
kon (M⁻¹ s⁻¹): 182000
